Tested on: THP-1
Assay: cell viability (% survival relative to DMSO control, bortezomib = 0%); higher = less cytotoxic
Details: 1 nM; 72 h
Structures can show the parent of a compound that is named as a salt.
Would you mind telling me the reported cell viability of each entry?
API: value field is a number in %; no unit string.

Indicate its recorded cell viability; the compound in question is CCCCCOC(=O)Nc1nc(=O)n([C@@H]2O[C@H](C)[C@@H](O)[C@H]2O)cc1F 102

Indicate its recorded cell viability; the compound in question is Cc1cccc(Nc2cc(Cl)nc(SCC(=O)O)n2)c1C 105

Indicate its recorded cell viability; the compound in question is CCOC(=O)c1sc(NC(=O)c2ccco2)c(SC#N)c1C 102

Indicate its recorded cell viability; the compound in question is CCN(CC)C(=S)SSC(=S)N(CC)CC 94.5

Indicate its recorded cell viability; the compound in question is CCN(CCO)CCCC(C)Nc1ccnc2cc(Cl)ccc12 (configuration not stated) [Hydroxychloroquine sulfate] 91.5

Indicate its recorded cell viability; the compound in question is COC(=O)c1cc2c(C(F)(F)F)cc(-c3ccccc3)cc2n1O 97.4

Indicate its recorded cell viability; the compound in question is CCCc1nc(C)c2c(=O)nc(-c3cc(S(=O)(=O)N4CCN(CC)CC4)ccc3OCC)[nH]n12 93.8

Indicate its recorded cell viability; the compound in question is CN(CCCOc1ccc(Cc2ccccc2)cc1)CCC(=O)O 104

Indicate its recorded cell viability; the compound in question is C[C@]12C=CC(=O)C=C1CC[C@@H]1[C@@H]2[C@@H](O)C[C@@]2(C)[C@H]1CC[C@]2(O)C(=O)CO 92

Indicate its recorded cell viability; the compound in question is CCc1oc2ccccc2c1C(=O)c1cc(Br)c(O)c(Br)c1 105

Indicate its recorded cell viability; the compound in question is CN(Cc1cnc2nc(N)nc(N)c2n1)c1ccc(C(=O)N[C@@H](CCC(=O)O)C(=O)O)cc1 [Methotrexate] 99.8

Indicate its recorded cell viability; the compound in question is N[C@@H](CC(=O)N1CCn2c(nnc2C(F)(F)F)C1)Cc1cc(F)c(F)cc1F 97.8

====

Test system: KG-1
Assay: cell viability (% survival relative to DMSO control, bortezomib = 0%); higher = less cytotoxic
Settings: 10000 nM; 72 h
Would you mind telling me the reported cell viability of each entry?
API: value field is a number in %; no unit string.

Indicate its recorded cell viability; the molecule in question is CCn1c(=Cc2cccc[n+]2CC)sc(=C2Sc3ccccc3N2C)c1=O 79.3

Indicate its recorded cell viability; the molecule in question is O=C([O-])CC(O)(C(=O)[O-])C(O)C(=O)[O-].[K+].[K+].[K+] (stereo unspecified) [Hydroxycitrate] 91.5

Indicate its recorded cell viability; the molecule in question is O=C(/C=C/c1ccc(O)c(O)c1)OCCc1ccccc1 23.5

Indicate its recorded cell viability; the molecule in question is Cc1cc(C(=O)NNCc2ccccc2)no1 91.1

Indicate its recorded cell viability; the molecule in question is Cc1c(Cl)cccc1S(=O)(=O)Nc1nc(CC(=O)N2CCN(C)CC2)cs1 105

Indicate its recorded cell viability; the molecule in question is C=CCN(C)CCCCCCOc1ccc(C(=O)c2ccc(Br)cc2)c(F)c1.O=C(O)/C=C/C(=O)O [Ro 48-8071 fumarate] 52.3
